Data origin: patent US20250257061A1

System: Wnt reporter (TCF/LEF1 promoter)
Method summary: HEK STF293 Wnt reporter (TOPFlash) luciferase assay, Steady Glo normalised to Cell Titer
Format: cell-based, human
Protocol conditions: Homo sapiens, STF/293; Examples for Formulae (VIII), (IX), and (X); HEK STF293 cells, Wnt3a-conditioned media; read-out: TOPFlash IC50 category
Measurement type: IC50

Compound: O=C(Nc1nc(-c2ccccn2)cs1)c1ccc(=O)n(Cc2ccc(F)cc2)c1 [Example 4]
Measurement type: IC50
Value measured: 500 to 1000 nM

Compound: O=C(Nc1nc(-c2ccccn2)cs1)c1cccnc1Oc1ccc(C(F)(F)F)cc1 [Example 13]
Measurement type: IC50
Value measured: 200 to 500 nM

Compound: O=C(Nc1nc(-c2ccccn2)cs1)c1ccc(=O)n(-c2ccccc2F)c1 [Example 3]
Measurement type: IC50
Value measured: 200 to 500 nM

Compound: O=C(Nc1nc(-c2ccccn2)cs1)c1cccnc1-c1ccc(F)cc1 [Example 12]
Measurement type: IC50
Value measured: 200 to 500 nM

Compound: O=C(Nc1nc(-c2ccccn2)cs1)c1cc(Cl)c(=O)n(Cc2ccc(C(F)(F)F)cc2)c1 [Example 8]
Measurement type: IC50
Value measured: 500 to 1000 nM

Compound: CS(=O)(=O)c1ccc(-n2nccc2C(=O)Nc2nc(-c3ccccn3)co2)cc1 [Example 1]
Measurement type: IC50
Value measured: 200 to 500 nM

Compound: O=C(Nc1nc(-c2ccccn2)cs1)c1ccc(=O)n(-c2ccc(F)cc2)c1 [Example 2]
Measurement type: IC50
Value measured: 200 to 500 nM

Compound: O=C(Nc1nc(-c2ccccn2)cs1)c1ccn(Cc2ccc(F)cc2)c(=O)c1 [Example 9]
Measurement type: IC50
Value measured: 1000 to 10000 nM
